Let's look at some compounds and their measured Tefflux50.
- TESTED_TARGET: AcrB efflux pump in E. coli BW25113 (Escherichia coli)
- Construct: endogenous in cells; host or cells: E. coli BW25113 (wild type)
- Sequence (P0AE06 25-397): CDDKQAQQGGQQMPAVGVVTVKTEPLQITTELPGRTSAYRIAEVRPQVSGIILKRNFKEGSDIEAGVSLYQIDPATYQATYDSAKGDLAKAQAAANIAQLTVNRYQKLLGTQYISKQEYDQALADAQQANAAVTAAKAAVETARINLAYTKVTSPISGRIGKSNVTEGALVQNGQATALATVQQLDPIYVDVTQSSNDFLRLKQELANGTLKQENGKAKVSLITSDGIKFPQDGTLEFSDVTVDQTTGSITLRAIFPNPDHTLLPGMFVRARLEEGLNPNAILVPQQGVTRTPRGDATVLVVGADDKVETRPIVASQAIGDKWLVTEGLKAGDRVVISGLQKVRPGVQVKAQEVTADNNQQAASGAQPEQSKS
- Sequence (P31224 whole entry): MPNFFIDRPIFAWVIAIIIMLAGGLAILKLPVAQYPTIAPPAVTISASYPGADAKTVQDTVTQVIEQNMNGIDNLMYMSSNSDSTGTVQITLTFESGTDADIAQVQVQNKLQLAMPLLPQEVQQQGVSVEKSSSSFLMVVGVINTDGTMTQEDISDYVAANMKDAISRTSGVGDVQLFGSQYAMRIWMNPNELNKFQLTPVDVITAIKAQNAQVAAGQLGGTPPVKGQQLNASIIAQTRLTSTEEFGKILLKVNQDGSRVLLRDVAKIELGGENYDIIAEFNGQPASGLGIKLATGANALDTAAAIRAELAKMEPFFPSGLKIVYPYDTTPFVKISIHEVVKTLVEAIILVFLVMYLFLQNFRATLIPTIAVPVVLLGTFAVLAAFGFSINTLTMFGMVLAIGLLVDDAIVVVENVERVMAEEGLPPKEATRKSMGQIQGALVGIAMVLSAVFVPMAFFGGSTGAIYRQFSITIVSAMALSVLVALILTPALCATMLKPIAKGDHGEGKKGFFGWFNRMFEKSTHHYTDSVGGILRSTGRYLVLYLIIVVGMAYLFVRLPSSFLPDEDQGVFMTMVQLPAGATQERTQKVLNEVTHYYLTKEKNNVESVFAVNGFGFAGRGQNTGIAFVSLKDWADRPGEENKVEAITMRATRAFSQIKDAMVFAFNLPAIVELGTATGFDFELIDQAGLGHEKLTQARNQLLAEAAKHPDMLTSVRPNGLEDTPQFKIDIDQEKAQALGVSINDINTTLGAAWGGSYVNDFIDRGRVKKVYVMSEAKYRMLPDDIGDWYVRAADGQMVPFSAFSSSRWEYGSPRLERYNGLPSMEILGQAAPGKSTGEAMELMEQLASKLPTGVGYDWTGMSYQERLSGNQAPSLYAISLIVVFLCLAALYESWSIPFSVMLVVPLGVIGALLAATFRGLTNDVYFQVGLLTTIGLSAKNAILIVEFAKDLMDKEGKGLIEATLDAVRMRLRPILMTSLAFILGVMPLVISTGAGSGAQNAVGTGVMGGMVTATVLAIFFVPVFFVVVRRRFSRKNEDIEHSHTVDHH
- Sequence (P02930 23-493, further chain): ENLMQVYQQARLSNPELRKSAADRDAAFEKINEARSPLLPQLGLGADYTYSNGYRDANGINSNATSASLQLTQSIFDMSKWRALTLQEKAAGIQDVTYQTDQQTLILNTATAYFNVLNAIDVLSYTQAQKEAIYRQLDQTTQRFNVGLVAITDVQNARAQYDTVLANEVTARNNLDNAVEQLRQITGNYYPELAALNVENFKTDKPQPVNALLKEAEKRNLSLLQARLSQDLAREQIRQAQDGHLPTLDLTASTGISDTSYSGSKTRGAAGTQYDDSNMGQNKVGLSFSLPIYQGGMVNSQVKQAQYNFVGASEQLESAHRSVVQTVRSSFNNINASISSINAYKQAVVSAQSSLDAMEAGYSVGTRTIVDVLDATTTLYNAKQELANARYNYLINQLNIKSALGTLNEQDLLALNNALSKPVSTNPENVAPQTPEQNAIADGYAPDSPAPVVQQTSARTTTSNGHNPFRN
- PROTOCOL_DESCRIPTION: Nile red efflux assay (whole-cell competition)
- Assay type: cell-based
- CONDITION_LABEL: 100µM compound
Reply with just the number (in s).

                              smiles_string                             tested_target  observed_property  endpoint_value
0  COc1cc(-c2csc(NC(=O)c3ccc([N+](=O)[O-])s3)n2)ccc1Cl  AcrB efflux pump in E. coli BW25113 (Escherichia coli)          Tefflux50             200
1  O=C(Nc1nc(-c2ccc(F)cc2)cs1)c1ccc([N+](=O)[O-])s1  AcrB efflux pump in E. coli BW25113 (Escherichia coli)          Tefflux50             200
2  Cc1sc(NC(=O)c2ccc([N+](=O)[O-])s2)nc1-c1ccccc1  AcrB efflux pump in E. coli BW25113 (Escherichia coli)          Tefflux50             200

input: Can you share its Tefflux50? I mean this compound: O=C(Nc1nc(-c2ccc(F)cc2F)cs1)c1ccc([N+](=O)[O-])s1
output: 68.17

====

- TESTED_TARGET: AcrB efflux pump in E. coli BW25113 (Escherichia coli)
- Construct: endogenous in cells; host or cells: E. coli BW25113 (wild type)
- PROTOCOL_DESCRIPTION: Nile red efflux assay (whole-cell competition)
- Type: cell-based
- CONDITION_LABEL: 9µM compound
OBSERVED_PROPERTY: Tefflux50 (s)
Reply with just the number (in s).

Below are worked cases with known answers.
                              smiles_string  observed_property  readout_units  endpoint_value
0  O=C(Nc1nc(-c2ccc(F)cc2F)cs1)c1ccc([N+](=O)[O-])s1          Tefflux50              s           67.52
1  COc1cc(-c2csc(NC(=O)c3ccc([N+](=O)[O-])s3)n2)ccc1Cl          Tefflux50              s           71.14
2  Cc1sc(NC(=O)c2ccc([N+](=O)[O-])s2)nc1-c1ccccc1          Tefflux50              s             200

input: Can you share its Tefflux50? I mean this compound: O=C(Nc1nc(-c2ccc(F)cc2)cs1)c1ccc([N+](=O)[O-])s1
output: 72.51

====

- PROTOCOL_DESCRIPTION: Intravenous pharmacokinetics
- Format: in vivo, BALB/c mice
- CONDITION_LABEL: BALB/c, mouse, in vivo; mice, single IV dose 2 mg/kg
OBSERVED_PROPERTY: half-life (min)
Reply with just the number (in min).

                              smiles_string  readout_units  endpoint_value
0  O=C(Nc1nc(-c2ccc(F)cc2F)cs1)c1ccc([N+](=O)[O-])s1            min              36

input: Can you share its half-life? I mean this compound: O=C(Nc1nc(-c2ccc(F)cc2)cs1)c1ccc([N+](=O)[O-])s1
output: 30
